ASSAY SYSTEM: T1, huZIP12-ECD-GST (human, UniProt Q504Y0 24-202)
T1 construct: also called hZIP12-ECD-GST; human ZIP12-ECD-GST; not shown: glutathione S-transferase (GST) tag
T1 sequence (Q504Y0 24-202): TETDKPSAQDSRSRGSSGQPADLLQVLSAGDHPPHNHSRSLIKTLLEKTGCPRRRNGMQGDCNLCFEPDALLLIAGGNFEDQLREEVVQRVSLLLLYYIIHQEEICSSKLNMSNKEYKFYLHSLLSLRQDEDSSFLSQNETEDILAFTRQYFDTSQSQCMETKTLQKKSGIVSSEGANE
ASSAY NOTES: SPR single cycle kinetics (Biacore): mAb captured on protein A, huZIP12-ECD-GST injected at 3.12-800 nM
I'd be grateful if you could share measured koff for these entries.
Answers are plain numbers, in s⁻¹.

Hi, could you look up koff for each item in my list?
1. H3_M105P_L1 (antibody, V domains shown, Fc null human IgG1 / human kappa) VH: QVQLVESGGGVVQPGRSLRLSCAASGFTFSDYGMHWVRQAPGKGLEWVAYISSGGTTIYYADTVKGRFTISRDNSKNTLYLQMNSLRAEDTAVYYCARWTNLYAPDYWGQGTTVTVSS VL: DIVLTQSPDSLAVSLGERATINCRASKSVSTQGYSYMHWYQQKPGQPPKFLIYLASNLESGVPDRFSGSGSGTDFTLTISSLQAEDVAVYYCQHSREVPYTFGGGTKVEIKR
2. H2_G66Q_VL-par (antibody, V domains shown, Fc null human IgG1 / human kappa) VH: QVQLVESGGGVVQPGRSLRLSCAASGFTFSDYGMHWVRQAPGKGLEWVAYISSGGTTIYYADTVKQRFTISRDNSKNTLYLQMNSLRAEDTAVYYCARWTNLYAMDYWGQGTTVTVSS VL: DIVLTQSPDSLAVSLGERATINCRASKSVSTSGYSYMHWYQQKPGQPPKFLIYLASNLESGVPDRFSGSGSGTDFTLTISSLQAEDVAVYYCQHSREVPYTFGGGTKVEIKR
3. H2_Y60K_L2 (antibody, V domains shown, Fc null human IgG1 / human kappa) VH: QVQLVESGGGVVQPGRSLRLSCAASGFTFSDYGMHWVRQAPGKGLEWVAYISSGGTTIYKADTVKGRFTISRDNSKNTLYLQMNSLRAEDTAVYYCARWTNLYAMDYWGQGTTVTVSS VL: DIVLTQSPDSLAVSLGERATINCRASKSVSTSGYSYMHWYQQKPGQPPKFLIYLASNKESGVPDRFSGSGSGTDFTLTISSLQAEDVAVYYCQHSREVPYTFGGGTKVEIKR
4. H2_K65P_VL-par (antibody, V domains shown, Fc null human IgG1 / human kappa) VH: QVQLVESGGGVVQPGRSLRLSCAASGFTFSDYGMHWVRQAPGKGLEWVAYISSGGTTIYYADTVPGRFTISRDNSKNTLYLQMNSLRAEDTAVYYCARWTNLYAMDYWGQGTTVTVSS VL: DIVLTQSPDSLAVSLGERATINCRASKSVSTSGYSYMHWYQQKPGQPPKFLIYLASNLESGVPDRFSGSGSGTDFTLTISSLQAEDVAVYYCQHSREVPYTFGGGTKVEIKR
5. 51B12_VH_L1 (antibody, V domains shown, Fc null human IgG1 / human kappa) VH: QVQLVESGGGVVQPGRSLRLSCAASGFTFSDYGMHWVRQAPGKGLEWVAYISSGGTTIYYADTVKGRFTISRDNSKNTLYLQMNSLRAEDTAVYYCARWTNLYAMDYWGQGTTVTVSS VL: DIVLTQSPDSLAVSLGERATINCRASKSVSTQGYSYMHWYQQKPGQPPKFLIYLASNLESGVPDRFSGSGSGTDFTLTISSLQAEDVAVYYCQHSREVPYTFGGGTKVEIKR

Result string:
4.35e-05
3.72e-05
4.04e-05
2.92e-05
2.83e-05
